B1: CPEB3 Ribozyme (parent)
chain: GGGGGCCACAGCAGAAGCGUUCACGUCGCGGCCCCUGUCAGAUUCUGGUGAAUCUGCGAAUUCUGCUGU

variants of: B1; test: self-cleavage, relative activity (ratio to wild type); higher = more cleavage; co-transcriptional
Items are presented alongside their recorded self-cleavage.
Respond using a number only.

# lookup: self-cleavage of GGGGGCCACAGCAGAAGCGUUCACGUCGCGGCCCCUGUCAGAUUCUGGUGAAUCCGCGGAUUCUGCUGU [U55C A59G]
0.967

Next variant up: GGGGGCCACAGCAGCAGCGUUCCCGUCGCGGCCCCUGUCAGAUUCUGGUGAAUCUGCGAAUUCUGCUGU [A15C A23C]
0.835

Next variant up: GGGGGCCAGAGCAGAAGCGUUCACGUCGCGGCCCCUGUCAGAUUCUGGUGAAUCUGCGCAUUCUGCUGU [C9G A59C]
0.896

Next variant up: GGGGGCCACAGCAGAAGCGUUCACGUCGCGGCCCCUGUCACAUUCUGGUGAUUCUGCGAAUUCUGCUGU [G41C A52U]
0.415

Next variant up: GGGGGGCACCGCAGAAGCGUUCACGUCGCGGCCCCUGUCAGAUUCUGGUGAAUCUGCGAAUUCUGCUGU [C6G A10C]
0.284

Next variant up: GGGGGCCACAGCAGAAGCGUUCACGUCCCGGCCCCUGUCAGAUUCUGCUGAAUCUGCGAAUUCUGCUGU [G28C G48C]
0.135

Next variant up: GGGGGCCACAGCAGAAGCGUUCACGUCGCGGCCCCUGCCAGAUUCUGGUGAAUCUGCGAAUUCUGCUGG [U38C U69G]
1.05

Next variant up: GGGGGCCACAGCAGGAGCGUUCACGUCCCGGCCCCUGUCAGAUUCUGGUGAAUCUGCGAAUUCUGCUGU [A15G G28C]
0.165

Next variant up: GGGGGCCACAGCAGAAGCGUUCACGUCGCGGCCCCUGUCAGCUUCUGGUGAAGCUGCGAAUUCUGCUGU [A42C U53G]
1.04
